Every entry's value here was drawn from PubChem BioAssay AID1919001.

System: 699152-130-R-J1-PDC complex spheroid growth;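 note: compound exposure lasted 7 days after spheroids had grown for 3 days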
Assay: Anticancer human tumor 699152-130-R-J1-PDC patient-derived pancreatic carcinoma cell line growth inhibition [AhR]
Conditions: second compound 0.316 µM; first compound 0.00316 µM; stronger effect = lower value
Recorded viability, T/C values for a group of molecules are listed next.
State just the number; it will be interpreted in %.

Answered cases to consult:
MOLECULE: CC[C@@]1(O)C(=O)OCc2c1cc1n(c2=O)Cc2cc3c(CN(C)C)c(O)ccc3nc2-1 + Cc1ccccc1N=Nc1ccc(NC(=O)c2ccnn2C)c(C)c1
SYSTEM_TESTED: 699152-130-R-J1-PDC complex spheroid growth;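 note: compound exposure lasted 7 days after spheroids had grown for 3 days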
ASSAY_ENDPOINT: viability, T/C
VALUE_UNIT: %
MEASURED_RESULT: 99.6
--
MOLECULE: Nc1ncn(C2CC(O)C(CO)O2)c(=O)n1 (stereo not drawn) + CC(CO)NC(=O)c1cc(-c2ccc(Cl)cc2)nn(-c2cnn(C)c2)c1=O
SYSTEM_TESTED: 699152-130-R-J1-PDC complex spheroid growth;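 note: compound exposure lasted 7 days after spheroids had grown for 3 days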
ASSAY_ENDPOINT: viability, T/C
VALUE_UNIT: %
MEASURED_RESULT: 89.5
--
MOLECULE: CC[C@@]1(O)C(=O)OCc2c1cc1n(c2=O)Cc2cc3c(CN(C)C)c(O)ccc3nc2-1 + Cc1cncc(-c2nc(NCCc3c[nH]c4ccccc34)c3ncn(C(C)C)c3n2)c1
SYSTEM_TESTED: 699152-130-R-J1-PDC complex spheroid growth;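 note: compound exposure lasted 7 days after spheroids had grown for 3 days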
ASSAY_ENDPOINT: viability, T/C
VALUE_UNIT: %
MEASURED_RESULT: 98
--
MOLECULE: CC1COCCN1c1cc(-c2ccnn2C)c2ccnc(-c3ccn[nH]3)c2n1 (stereo not drawn) + CC(CO)NC(=O)c1cc(-c2ccc(Cl)cc2)nn(-c2cnn(C)c2)c1=O
SYSTEM_TESTED: 699152-130-R-J1-PDC complex spheroid growth;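 note: compound exposure lasted 7 days after spheroids had grown for 3 days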
ASSAY_ENDPOINT: viability, T/C
VALUE_UNIT: %
MEASURED_RESULT: 102
--
MOLECULE: Cn1ncnc1C1c2n[nH]c(=O)c3cc(F)cc(c23)NC1c1ccc(F)cc1 (stereo not drawn) + Cc1cncc(-c2nc(NCCc3c[nH]c4ccccc34)c3ncn(C(C)C)c3n2)c1
SYSTEM_TESTED: 699152-130-R-J1-PDC complex spheroid growth;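 note: compound exposure lasted 7 days after spheroids had grown for 3 days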
ASSAY_ENDPOINT: viability, T/C
VALUE_UNIT: %
MEASURED_RESULT: 125

Request: What value of measured viability, T/C is listed for CC[C@@]1(O)C(=O)OCc2c1cc1n(c2=O)Cc2cc3c(CN(C)C)c(O)ccc3nc2-1 + CC(CO)NC(=O)c1cc(-c2ccc(Cl)cc2)nn(-c2cnn(C)c2)c1=O ?
Response: 93

Request: And then Cn1ncnc1C1c2n[nH]c(=O)c3cc(F)cc(c23)NC1c1ccc(F)cc1 (stereo not drawn) + CC(CO)NC(=O)c1cc(-c2ccc(Cl)cc2)nn(-c2cnn(C)c2)c1=O , what is it?
Response: 120

Request: And then Nc1ncn(C2CC(O)C(CO)O2)c(=O)n1 (stereo not drawn) + Cc1cncc(-c2nc(NCCc3c[nH]c4ccccc34)c3ncn(C(C)C)c3n2)c1 , what is it?
Response: 99.3
